System: rodent lifetime carcinogenesis bioassay, tumor incidence TD50
Assay: carcinogenic potency in animals, long-term in vivo studies, CPDB compilation (AID 1745844)
Conditions: rat; strain Wistar; males; in feed; site: testis; lesion: interstitial-cell tumor, benign; dosed 77 weeks; study length 77 weeks
measure: TD50

Q. Consider the molecule shown here: `[Cl][Cd][Cl]` What is its recorded TD50?
A. 31.6 mg/kg/day

* * *

Tested on: rodent lifetime carcinogenesis bioassay, tumor incidence TD50
Experiment: carcinogenic potency in animals, long-term in vivo studies, CPDB compilation (AID 1745844)
Details: rat; strain Fischer 344; females; in feed; site: mammary gland + multiple organs + spleen + urinary bladder; lesion: adenoma, NOS + fibroadenoma + angiosarcoma + fibrosarcoma + osteosarcoma + sarcoma, NOS + transitional-cell carcinoma + transitional-c; dosed 104 weeks; study length 104 weeks
measure: TD50 (mg/kg/day)
Report the value in mg/kg/day with no unit label.

Q. Consider the compound shown here: `Cc1ccccc1N` What is its recorded TD50?
A. 77.9

* * *

Test system: rodent lifetime carcinogenesis bioassay, tumor incidence TD50
Test: carcinogenic potency in animals, long-term in vivo studies, CPDB compilation (AID 1745844)
Settings: rat; strain Charles River CD (Sprague-Dawley); females; i.p.; site: lung; lesion: adenoma; dosed 26 weeks; study length 78 weeks
Numbered stars: 1 amine (or outer) side, 2 acyl side, 3 side chain; on linkers, the order of the positions; unused ones are H or OH. Bridge positions count the residues as written; N and C are the ends. Square brackets hold non-standard residues; d marks the D form. Peptide text beside a SMILES is read from it. I, II: the chains in the order shown. Actinocin(9to1) = Cc1c2oc3c(C)ccc(C(=O)[*:1])c3nc-2c(C(=O)[*:2])c(N)c1=O; NMeV = CN[C@H](C(=O)O)C(C)C; Sar = CNCC(=O)O
measure: TD50 (mg/kg/day)
Report the value in mg/kg/day with no unit label.

Q. Consider the compound shown here: Cc1c2oc3c(C)ccc(C(=O)N[C@@H]4C(=O)N[C@H](C(C)C)C(=O)N5CCC[C@H]5C(=O)N(C)CC(=O)N(C)[C@@H](C(C)C)C(=O)O[C@@H]4C)c3nc-2c(C(=O)N[C@@H]2C(=O)N[C@H](C(C)C)C(=O)N3CCC[C@H]3C(=O)N(C)CC(=O)N(C)[C@@H](C(C)C)C(=O)O[C@@H]2C)c(N)c1=O (I: T[dV]P[Sar][NMeV] / II: T[dV]P[Sar][NMeV]; ester I:1-I:C, II:1-II:C; linker I:N-II:N via Actinocin(9to1)) What is its recorded TD50?
A. 0.0501

* * *

Test system: rodent lifetime carcinogenesis bioassay, tumor incidence TD50
Assay: carcinogenic potency in animals, long-term in vivo studies, CPDB compilation (AID 1745844)
Conditions: mouse; strain B6C3F1; males; by gavage; site: forestomach; lesion: squamous-cell papilloma; dosed 103 weeks; study length 104 weeks
measure: TD50 (mg/kg/day)
Report the value in mg/kg/day with no unit label.

Q. Consider the compound shown here: `c1ccc2occc2c1` What is its recorded TD50?
A. 154

Q. Input `O=c1ccc2ccccc2o1`
A. 179

* * *

Test system: rodent lifetime carcinogenesis bioassay, tumor incidence TD50
Assay: carcinogenic potency in animals, long-term in vivo studies, CPDB compilation (AID 1745844)
Conditions: mouse; strain B6C3F1; females; by gavage; site: stomach; lesion: squamous-cell carcinoma + squamous-cell papilloma; dosed 104 weeks; study length 106 weeks
measure: TD50

Q. Recorded TD50 for `ClC=CCCl` with rodent lifetime carcinogenesis bioassay, tumor incidence TD50, please?
A. 344 mg/kg/day

* * *

Tested on: rodent lifetime carcinogenesis bioassay, tumor incidence TD50
Test: carcinogenic potency in animals, long-term in vivo studies, CPDB compilation (AID 1745844)
Details: rat; strain Fischer 344; females; in feed; site: any site (literature study); lesion: several types; types named in the paper; dosed 83 weeks; study length 86 weeks
measure: TD50 (mg/kg/day)
Report the value in mg/kg/day with no unit label.

Q. Consider the compound shown here: `COc1ccc(N)cc1N` What is its recorded TD50?
A. 67.3

* * *

System: rodent lifetime carcinogenesis bioassay, tumor incidence TD50
Test: carcinogenic potency in animals, long-term in vivo studies, CPDB compilation (AID 1745844)
Conditions: mouse; strain Swiss albino; females; in drinking water; site: lung; lesion: adenocarcinoma; dosed 119 weeks; study length 119 weeks
measure: TD50 (mg/kg/day)
Report the value in mg/kg/day with no unit label.

Q. Consider the molecule shown here: `CCCCNN` What is its recorded TD50?
A. 50.6

* * *

Test system: rodent lifetime carcinogenesis bioassay, tumor incidence TD50
Assay: carcinogenic potency in animals, long-term in vivo studies, CPDB compilation (AID 1745844)
Conditions: rat; strain Fischer 344; males; by gavage; site: forestomach; lesion: squamous-cell carcinoma; dosed 103 weeks; study length 104 weeks
measure: TD50

Q. Consider the molecule shown here: c1cc(OCC2CO2)cc(OCC2CO2)c1 (stereo unspecified) What is its recorded TD50?
A. 2.73 mg/kg/day

* * *

System: rodent lifetime carcinogenesis bioassay, tumor incidence TD50
Experiment: carcinogenic potency in animals, long-term in vivo studies, CPDB compilation (AID 1745844)
Conditions: mouse; strain CD-1 HaM/ICR; males; in feed; site: any site (literature study); lesion: several types; types named in the paper; dosed 77 weeks; study length 86 weeks
Activity calls are given as the source filed them. How the calls were made is not given here.
measure: TD50

Q. Consider the molecule shown here: `Nc1ccccc1N` What is its recorded TD50?
A. 1970 mg/kg/day

Q. Input C1C2OC2C2C1C1CC2C2OC12 (configuration not stated)
A. 149 mg/kg/day (inactive)

* * *

Tested on: rodent lifetime carcinogenesis bioassay, tumor incidence TD50
Test: carcinogenic potency in animals, long-term in vivo studies, CPDB compilation (AID 1745844)
Conditions: rat; strain Sprague-Dawley; females; in drinking water; site: liver; lesion: hepatocellular adenoma; dosed 104 weeks; study length 120 weeks
measure: TD50 (mg/kg/day)
Report the value in mg/kg/day with no unit label.

Q. Recorded TD50 for `CCO` with rodent lifetime carcinogenesis bioassay, tumor incidence TD50, please?
A. 201000

* * *

System: rodent lifetime carcinogenesis bioassay, tumor incidence TD50
Test: carcinogenic potency in animals, long-term in vivo studies, CPDB compilation (AID 1745844)
Conditions: rat; strain Colworth (Wistar derived); males; in drinking water; site: liver; lesion: intrahepatic bile duct tumor, malignant; dosed 176 weeks; study length 176 weeks
measure: TD50 (mg/kg/day)
Report the value in mg/kg/day with no unit label.

Q. Consider the compound shown here: `CN(C)N=O` What is its recorded TD50?
A. 23.6

* * *

Tested on: rodent lifetime carcinogenesis bioassay, tumor incidence TD50
Experiment: carcinogenic potency in animals, long-term in vivo studies, CPDB compilation (AID 1745844)
Conditions: mouse; strain B6AKF1; males; oral dosing; site: lung; lesion: adenoma; dosed 84 weeks; study length 84 weeks
measure: TD50 (mg/kg/day)
Report the value in mg/kg/day with no unit label.

Q. Consider the compound shown here: `CC(C)N(C(=O)SCC(Cl)=CCl)C(C)C` What is its recorded TD50?
A. 243

* * *

System: rodent lifetime carcinogenesis bioassay, tumor incidence TD50
Test: carcinogenic potency in animals, long-term in vivo studies, CPDB compilation (AID 1745844)
Settings: mouse; strain B6C3F1; females; in feed; site: any site (literature study); lesion: several types; types named in the paper; dosed 94 weeks; study length 94 weeks
measure: TD50 (mg/kg/day)
Report the value in mg/kg/day with no unit label.

Q. Consider the compound shown here: `NC(=S)NNC(N)=S` What is its recorded TD50?
A. 4350

* * *

Test system: rodent lifetime carcinogenesis bioassay, tumor incidence TD50
Assay: carcinogenic potency in animals, long-term in vivo studies, CPDB compilation (AID 1745844)
Conditions: rat; strain Fischer 344; males; in feed; site: multiple organs + tunica vaginalis; lesion: mesothelioma; dosed 102 weeks; study length 104 weeks
measure: TD50

Q. Recorded TD50 for `Cc1ccccc1N` with rodent lifetime carcinogenesis bioassay, tumor incidence TD50, please?
A. 97.4 mg/kg/day

* * *

Tested on: rodent lifetime carcinogenesis bioassay, tumor incidence TD50
Experiment: carcinogenic potency in animals, long-term in vivo studies, CPDB compilation (AID 1745844)
Details: mouse; strain B6C3F1; males; by gavage; site: lung; lesion: alveolar/bronchiolar adenoma + alveolar/bronchiolar carcinoma; dosed 52 weeks; study length 83 weeks
measure: TD50 (mg/kg/day)
Report the value in mg/kg/day with no unit label.

Q. Consider the molecule shown here: `C[C@]12CC[C@@H]3c4ccc(OC(=O)Cc5ccc(N(CCCl)CCCl)cc5)cc4CC[C@H]3[C@@H]1CC[C@@H]2OC(=O)Cc1ccc(N(CCCl)CCCl)cc1` What is its recorded TD50?
A. 2.34

* * *

System: rodent lifetime carcinogenesis bioassay, tumor incidence TD50
Experiment: carcinogenic potency in animals, long-term in vivo studies, CPDB compilation (AID 1745844)
Conditions: rat; strain Osborne-Mendel; males; in feed; site: any site (literature study); lesion: several types; types named in the paper; dosed 113 weeks; study length 113 weeks
The source made the active and inactive calls. The rule behind the calls is not given here.
measure: TD50

Q. Consider the compound shown here: `NC(N)=S` What is its recorded TD50?
A. 46.1 mg/kg/day (inactive)
